Source listed as paper PMC12475274.

# system-under-test: phosphorylated IRE1α (p-IRE1α) (Homo sapiens, UniProt O75460)
# Construct: Human IRE1α kinase and RNase domain (residues 547–977) was subcloned into pLIB plasmid; His tag (with TEV cleavage site) (N, cleaved yes); made in house; host or cells: Sf9 insect cells, baculovirus (Bac-to-Bac)
# Sequence (O75460 547-977): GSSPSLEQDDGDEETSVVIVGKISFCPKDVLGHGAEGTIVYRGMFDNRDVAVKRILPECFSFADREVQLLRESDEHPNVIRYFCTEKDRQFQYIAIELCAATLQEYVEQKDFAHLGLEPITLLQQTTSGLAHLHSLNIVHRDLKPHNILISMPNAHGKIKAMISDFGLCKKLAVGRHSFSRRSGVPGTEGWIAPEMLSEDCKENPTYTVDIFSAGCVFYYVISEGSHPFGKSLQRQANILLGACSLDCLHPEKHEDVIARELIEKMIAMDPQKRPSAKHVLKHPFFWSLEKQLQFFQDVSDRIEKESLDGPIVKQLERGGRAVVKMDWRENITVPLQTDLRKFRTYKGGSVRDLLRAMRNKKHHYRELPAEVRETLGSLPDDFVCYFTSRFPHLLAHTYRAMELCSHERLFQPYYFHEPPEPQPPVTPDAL
# assay-comment: FRET-based IRE1α RNase activity assay, phosphorylated IRE1α
# Format: biochemical
# measurement-context: FRET assay, RNase activity; mean (± SEM); read-out: p-IRE1α IC50
# From the text: Human IRE1α kinase and RNase domain (residues 547–977) was subcloned into pLIB plasmid with a His tag and TEV cleavage site, and expressed using Bac-to-Bac expression system. The primers used are listed in Supplementary Table S3. […] The dual-labeled RNA substrate with a FAM at 5’ and the BHQ-1 at 3’ containing the XBP1 sequence (5′FAM-[…]-3′BHQ1) was purchased from Integrated DNA Technologies (IDT). […] The plate was then kinetically read over one hour at room temperature using a TECAN Spark plate reader. […]
Measured pIC50 of individual entries
// scale note: pIC50 = -log10(conc_M); give the bare number

> print(dat)
                                   molecule  readout.number
1  Cc1c(CCC(=O)O)c2cc(-c3ccc(C(F)(F)F)cc3)ccc2n1C(=O)c1ccccc1 [IA145]            4.36
2  COc1ccc2c(c1)c(CCC(=O)O)c(C)n2C(=O)c1ccccc1 [IA64]            7.43
3  COc1ccc2c(c1)c(CCC(=O)O)c(C)n2C(=O)c1ccc(F)cc1 [IA66]            6.70
4  Cc1c(CCC(=O)O)c2cc(-c3cccc(N)c3)ccc2n1C(=O)c1ccccc1 [IA146]            5.18
5  Cc1ccc2c(NS(=O)(=O)c3ccccc3Cl)cccc2c1Oc1ncccc1-c1ccnc(N[C@H]2CCCNC2)n1 [KIRA8]            8.52

Field pIC50 (entry Cc1c(CCC(=O)O)c2cc(F)ccc2n1C(=O)c1ccccc1 [IA137] ) reads 6.14

Field pIC50 (entry COc1ccc2c(c1)c(CCC(=O)O)c(C)n2C(=O)c1ccccn1 [IA04] ) reads 6.09

Field pIC50 (entry Cc1c(CCC(=O)O)c2cc(-c3ccoc3)ccc2n1C(=O)c1ccccc1 [IA138] ) reads 5.69

---

# system-under-test: IRE1α (ERN1) (Homo sapiens, UniProt O75460)
# Sequence (O75460 19-977): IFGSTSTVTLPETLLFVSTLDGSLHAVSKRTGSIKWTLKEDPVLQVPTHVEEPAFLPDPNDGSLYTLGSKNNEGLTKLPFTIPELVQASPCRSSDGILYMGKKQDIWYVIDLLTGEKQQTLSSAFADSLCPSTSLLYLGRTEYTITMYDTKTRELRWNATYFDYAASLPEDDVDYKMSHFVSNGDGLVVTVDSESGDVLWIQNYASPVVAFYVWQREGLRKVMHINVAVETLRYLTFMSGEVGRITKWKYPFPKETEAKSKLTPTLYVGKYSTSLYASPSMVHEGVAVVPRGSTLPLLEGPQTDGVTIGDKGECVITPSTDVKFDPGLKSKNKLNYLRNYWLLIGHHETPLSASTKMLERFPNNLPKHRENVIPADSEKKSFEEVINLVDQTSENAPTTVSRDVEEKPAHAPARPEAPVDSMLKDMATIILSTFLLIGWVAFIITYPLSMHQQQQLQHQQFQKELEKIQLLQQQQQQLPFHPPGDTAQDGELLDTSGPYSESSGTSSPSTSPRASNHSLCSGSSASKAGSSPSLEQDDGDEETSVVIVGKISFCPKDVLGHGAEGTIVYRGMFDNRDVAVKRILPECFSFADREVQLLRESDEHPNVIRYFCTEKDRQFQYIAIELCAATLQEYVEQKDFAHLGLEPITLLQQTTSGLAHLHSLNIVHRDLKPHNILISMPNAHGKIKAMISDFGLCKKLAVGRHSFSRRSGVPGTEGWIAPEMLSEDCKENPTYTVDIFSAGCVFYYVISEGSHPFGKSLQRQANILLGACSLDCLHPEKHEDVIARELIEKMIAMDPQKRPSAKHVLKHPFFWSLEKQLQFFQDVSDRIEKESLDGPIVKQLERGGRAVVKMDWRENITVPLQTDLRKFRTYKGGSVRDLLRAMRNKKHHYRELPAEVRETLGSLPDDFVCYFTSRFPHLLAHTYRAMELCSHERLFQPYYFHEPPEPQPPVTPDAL
# assay-comment: LanthaScreen Eu kinase binding assay, IRE1α
# measurement-context: IRE1α kinase domain; read-out: IC50 (kinase binding), LanthaScreen Eu kinase binding
Measured pIC50 of individual entries
// scale note: pIC50 = -log10(conc_M); give the bare number

Some solved cases for reference:
> print(dat)
                              smiles.record  readout.number
1  COc1ccc2c(c1)c(CCC(=O)O)c(C)n2C(=O)c1ccc(Cl)cc1            5.61
2  COc1ccc2c(c1)c(CCC(=O)O)c(C)n2C(=O)c1ccccc1            5.96
3  Cc1c(CCC(=O)O)c2cc(Br)ccc2n1C(=O)c1ccccc1            6.11

Observed pIC50 on IRE1α (ERN1) (Homo sapiens, UniProt O75460), entry `COc1ccc2c(c1)c(CCC(=O)O)c(C)n2C(=O)c1cc2ccccc2s1` , equals 5.02
